- PROTOCOL_SUMMARY: in vivo
- Set-up: species or system crab-eating macaques
- CONDITION_PARAMETERS: crab-eating macaque (cynomolgus), monkey, iv, 0.4 mg/kg
- From the text: Experimental Purpose: To evaluate the druggability of the compounds by measuring its pharmacokinetic properties in different animal species. Experimental materials: CD-1 mice, Sprague-Dawley strain rats, beagle dogs, and crab-eating macaques. Drug preparation: An appropriate amount of sample was weighed and then prepared into a clear or suspended solution. […]
VALUE_KIND: clearance
# include the unit after the value

Q: Recorded clearance of Nc1ccc(C#CCc2ccc(COc3ccccn3)cc2)cn1 [WX004] , please.
A: 4.3 mL/min/kg

* * *

- PROTOCOL_SUMMARY: Pharmacokinetic evaluation in mice (IV)
- Format: in vivo, CD-1 mice
- CONDITION_PARAMETERS: CD-1, plasma, 1 mg/kg, Mouse, 1 mpk
VALUE_KIND: clearance (L/h/kg)
The answer is to be given in L/h/kg; state only the numeric part.

Q: Recorded clearance of Nc1ccc(C#CCc2ccc(COc3ccccn3)cc2)cn1 , please.
A: 1.68

* * *

- PROTOCOL_SUMMARY: Mouse pharmacokinetic evaluation, intraperitoneal injection after oral ABT
- Type: in vivo
- CONDITION_PARAMETERS: ip, female CD-1 mice, 6 mpk, ABT 50 mg/kg orally 2 hours before, plasma, read-out: Concentration Integral AUC
VALUE_KIND: AUC (µM·h)
The answer is to be given in µM·h; state only the numeric part.

Q: Recorded AUC of Cc1cc(C#CCc2ccc(COc3ccccn3)cc2)cnc1N , please.
A: 64

Q: Let us now turn to Nc1ccc(C#CCc2ccc(Oc3cccc(F)n3)cc2)cn1
A: 67

Q: Let us now turn to Nc1ncc(C#CCc2ccc(COc3ccccn3)cc2)cc1F
A: 75

* * *

- System: Aspergillus flavus ATCC MYA-1004
- PROTOCOL_SUMMARY: Minimum effective concentration (MEC) test against fungi
- Assay type: cell-based
- CONDITION_PARAMETERS: change of hyphae morphology by microscope, 48 hours, three independent experiments
VALUE_KIND: MEC (µg/mL)
The answer is to be given in µg/mL; state only the numeric part.

Q: Recorded MEC of Nc1ccc(C#CCc2ccc(Oc3cccc(F)n3)cc2)cn1 [WX009] , please.
A: 0.39

Q: Let us now turn to Cc1cc(C#CCc2ccc(COc3ccccn3)cc2)cnc1N [WX007]
A: 0.39

Q: Let us now turn to Nc1ncc(C#CCc2ccc(COc3ccccn3)cc2)cc1F [WX008]
A: 0.39

Q: Let us now turn to Nc1ccc(C#CCc2ccc(COc3ccccn3)cc2)c(F)n1 [WX005]
A: 3.12

* * *

- PROTOCOL_SUMMARY: Pharmacokinetic evaluation in rats (IV, PO)
- Format: in vivo, Sprague-Dawley strain rats
- CONDITION_PARAMETERS: Sprague-Dawley, plasma, 30 mg/kg; Rat, PO, 30 mpk
- Source text: Experimental Purpose: To evaluate the druggability of the compounds by measuring its pharmacokinetic properties in different animal species. Experimental materials: CD-1 mice, Sprague-Dawley strain rats, beagle dogs, and crab-eating macaques. Drug preparation: An appropriate amount of sample was weighed and then prepared into a clear or suspended solution. […]
VALUE_KIND: Cmax (µM)
The answer is to be given in µM; state only the numeric part.

Q: Recorded Cmax of Nc1ccc(C#CCc2ccc(COc3ccccn3)cc2)cn1 [WX004] , please.
A: 10
